The reported numbers originate from patent US11040047B2.

system: HEL cells; test: Cytotoxicity, minimum cytotoxic concentration (cell morphology) in HEL cells; conditions: Table 1; minimum concentration causing microscopically detectable alteration of cell morphology
ASSAY READOUT: Cytotoxicity HEL cells MCC

[[record]]
compound = "CCCCCOC(=O)C[C@H](NP1(=O)CO[C@H](Cn2ccc(N)nc2=O)CO1)C(=O)OCCCCC (stereo partly shown)"
measured_target = "HEL cells"
assay_readout = "Cytotoxicity HEL cells MCC"
op = ">"
obs_value = 19

[[record]]
compound = "CCCCCOC(=O)[C@@H](NP(=O)(CO[C@H](CO)Cn1cnc2c(N)ncnc21)N[C@H](C(=O)OCCCCC)C(C)C)C(C)C"
measured_target = "HEL cells"
assay_readout = "Cytotoxicity HEL cells MCC"
op = "="
obs_value = 8.57

[[record]]
compound = "CCCCCOC(=O)[C@H](CCSC)NP1(=O)CO[C@@H](Cn2cnc3c(N)ncnc32)CO1 (stereo partly shown)"
measured_target = "HEL cells"
assay_readout = "Cytotoxicity HEL cells MCC"
op = "="
obs_value = 4.11

[[record]]
compound = "CCCCCOC(=O)C[C@H](NP1(=O)CO[C@H](Cn2cnc3c(N)ncnc32)CO1)C(=O)OCCCCC (stereo partly shown)"
measured_target = "HEL cells"
assay_readout = "Cytotoxicity HEL cells MCC"
op = ">"
obs_value = 18.5

[[record]]
compound = "Nc1nc2c(ncn2COCCO)c(=O)[nH]1 [Acyclovir, reference compound]"
measured_target = "HEL cells"
assay_readout = "Cytotoxicity HEL cells MCC"
op = ">"
obs_value = 88.8

[[record]]
compound = "CCCCCOC(=O)C[C@H](NP1(=O)CO[C@@H](Cn2ccc(N)nc2=O)CO1)C(=O)OCCCCC (stereo partly shown)"
measured_target = "HEL cells"
assay_readout = "Cytotoxicity HEL cells MCC"
op = "="
obs_value = 19.4

[[record]]
compound = "CCCCCOC(=O)[C@H](C)NP1(=O)CO[C@@H](Cn2cnc3c(N)ncnc32)CO1 (stereo partly shown)"
measured_target = "HEL cells"
assay_readout = "Cytotoxicity HEL cells MCC"
op = "="
obs_value = 23.5

[[record]]
compound = "CCCCCOC(=O)[C@@H](NP1(=O)CO[C@@H](Cn2cnc3c(N)ncnc32)CO1)[C@@H](C)CC (stereo partly shown)"
measured_target = "HEL cells"
assay_readout = "Cytotoxicity HEL cells MCC"
op = "="
obs_value = 9.96

[[record]]
compound = "Nc1nc2c(ncn2CCC(CO)CO)c(=O)[nH]1 [Penciclovir, reference compound]"
measured_target = "HEL cells"
assay_readout = "Cytotoxicity HEL cells MCC"
op = ">"
obs_value = 79.0

[[record]]
compound = "CCCCCOC(=O)[C@H](Cc1ccccc1)NP1(=O)CO[C@@H](Cn2cnc3c(N)ncnc32)CO1 (stereo partly shown)"
measured_target = "HEL cells"
assay_readout = "Cytotoxicity HEL cells MCC"
op = "="
obs_value = 9.3

[[record]]
compound = "CCCCCOC(=O)[C@@H](NP1(=O)CO[C@@H](Cn2cnc3c(N)ncnc32)CO1)C(C)C (stereo partly shown)"
measured_target = "HEL cells"
assay_readout = "Cytotoxicity HEL cells MCC"
op = "="
obs_value = 4.40

[[record]]
compound = "CCCCCOC(=O)CC[C@H](NP1(=O)CO[C@@H](Cn2cnc3c(N)ncnc32)CO1)C(=O)OCCCCC (stereo partly shown)"
measured_target = "HEL cells"
assay_readout = "Cytotoxicity HEL cells MCC"
op = "="
obs_value = 13.2

[[record]]
compound = "CCCCCOC(=O)[C@H](CC(C)C)NP1(=O)CO[C@@H](Cn2cnc3c(N)ncnc32)CO1 (stereo partly shown)"
measured_target = "HEL cells"
assay_readout = "Cytotoxicity HEL cells MCC"
op = "="
obs_value = 4.27

